What koff was measured for each of the following?
Target: T1, recombinant human HER2 extracellular domain protein (human, UniProt P04626 23-652)
T1 construct: range 23-652; Range is printed for the immunogen/panning protein; also called ErbB2; recombinant HER2 protein
Experiment: BLI, Protein A capture
Write the quantity with the unit trailing the number.

Param item = Hu2117HK-Mu22 (Fc fusion, name in Kabat numbering, scFv-hIgG1 Fc; not shown: human IgG1 Fc) scFv: EVQLVESGGGLVQPGGSLRLSCAASGFTYSSYGMSWVRQAPGKGLEWVASISGGGSYTKYPDSVKGRFTISRDNSKNTLYLQMNSLRAEDTAVYYCARDYAGFFDVWGQGTLVTVSSGGGGSGGGGSGGGGSDIQMTQSPSSLSASVGDRVTITCRSSQSLVHSVGNTYLHWYQQKPGKAPKLLIYKVSNRFSGVPSRFSGSGSGTDFTLTISSLQPEDFATYFCSQSTHVPYTFGQGTKVEIK ; retrieve measured koff. 0.00059 s⁻¹

Param item = Hu2117HK-Mu34 (Fc fusion, scFv-hIgG1 Fc; not shown: human IgG1 Fc) scFv: EVQLVESGGGLVQPGGSLRLSCAASGFTYSSYGMSWVRQAPGKGLEWVASISGGGSYTKYPDSVKGRFTISRDNSKNTLYLQMNSLRAEDTAVYYCARDYAGFFDVWGQGTLVTVSSGGGGSGGGGSGGGGSDIQMTQSPSSLSASVGDRVTITCRSSQSLVHSNGNTYLHWYQQKPGKAPKLLIYKVSNRFSGVPSRFSGSGSGTDFTLTISSLQPEDFATYFCQQSTHVPYTFGQGTKVEIK ; retrieve measured koff. 0.00117 s⁻¹

Param item = Hu2117HK-Mu19 (Fc fusion, name in Kabat numbering, scFv-hIgG1 Fc; not shown: human IgG1 Fc) scFv: EVQLVESGGGLVQPGGSLRLSCAASGFTYSSYGMSWVRQAPGKGLEWVASISGGGSYTKYPDSVKGRFTISRDNSKNTLYLQMNSLRAEDTAVYYCARDYAGFFDVWGQGTLVTVSSGGGGSGGGGSGGGGSDIQMTQSPSSLSASVGDRVTITCRSSQSLVHSQGNTYLHWYQQKPGKAPKLLIYKVSNRFSGVPSRFSGSGSGTDFTLTISSLQPEDFATYFCSQSTHVPYTFGQGTKVEIK ; retrieve measured koff. 0.000837 s⁻¹

Param item = Hu2117HK-Mu32 (Fc fusion, scFv-hIgG1 Fc; not shown: human IgG1 Fc) scFv: EVQLVESGGGLVQPGGSLRLSCAASGFTYSSYGMSWVRQAPGKGLEWVASISGGGSYTKYPDSVKGRFTISRDNSKNTLYLQMNSLRAEDTAVYYCARDYAGFFDVWGQGTLVTVSSGGGGSGGGGSGGGGSDIQMTQSPSSLSASVGDRVTITCRSSQSLVSSNGNTYLHWYQQKPGKAPKLLIYKVSNRFSGVPSRFSGSGSGTDFTLTISSLQPEDFATYFCSQSTHVPYTFGQGTKVEIK ; retrieve measured koff. 0.000366 s⁻¹

Param item = Hu2117HK-Mu39 (Fc fusion, scFv-hIgG1 Fc; not shown: human IgG1 Fc) scFv: EVQLVESGGGLVQPGGSLRLSCAASGFTYSNYGMSWVRQAPGKGLEWVASISGGGSYTKYPDSVKGRFTISRDNSKNTLYLQMNSLRAEDTAVYYCARDYAGFFDVWGQGTLVTVSSGGGGSGGGGSGGGGSDIQMTQSPSSLSASVGDRVTITCRSSQSLVHSNGNTYLHWYQQKPGKAPKLLIYKVSNRFSGVPSRFSGSGSGTDFTLTISSLQPEDFATYFCSQSTHVPYTFGQGTKVEIK ; retrieve measured koff. 0.0012 s⁻¹
